The reported numbers originate from PubChem BioAssay.

EXPERIMENT: viability profiling in RPMI8226 myeloma cells – cell-based, resazurin fluorescence, basal, 24 h, PK04 Diversity Set, profiling panel (AID 1180);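 note: RPMI8826 multiple myeloma cell line at 5000 cells per well; test concentration not given here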
PROTOCOL CONDITIONS: higher = more signal
METRIC: z-score
Quick one: just the number, no unit, thanks!

Q) # z-score lookup, item CN(C)C(=O)[C@@]1(CCC(=O)OC(C)(C)C)COC(c2ccc(OCCCO)cc2)=N1
A) -0.195

Q) # z-score lookup, item C=CCC(OC(C)=O)[C@@H]1[C@@H](N(Cc2cccc3ccccc23)C(=O)c2ccc(C)cc2)c2cc(OCCCO)ccc2N1C(=O)c1ccc2ccccc2c1 (stereo partly drawn)
A) 1.04

Q) # z-score lookup, item COc1ccc(C#Cc2ccc3c(c2)[C@]2(C(=O)N3)[C@H](C(=O)O)[C@H]3C(=O)O[C@H](c4ccccc4)[C@H](c4ccccc4)N3[C@@H]2c2ccc(OCCO)cc2)cc1
A) 0.431

Q) # z-score lookup, item COCCCNC(=O)[C@@]1(Cc2ccccc2N=[N+]=[N-])N=C(c2ccc(OCCCO)cc2)O[C@H]1c1ccccc1CN=[N+]=[N-]
A) -2.25

Q) # z-score lookup, item CCCCC(=C=CC[C@H](O)c1ccccc1OCCO)C[C@H](O)c1ccccn1
A) 1.13

Q) # z-score lookup, item COC(=O)[C@@]1(Cc2ccc(F)cc2)[C@@H]2[C@@H](CC(=O)[C@H]2CC(=O)C(=O)N2CCCC2)CN1C(=O)c1ccccc1
A) -3.35

Q) # z-score lookup, item C=CCOC(=O)[C@H]1[C@@H]2C(=O)O[C@@H](c3ccccc3)[C@@H](c3ccccc3)N2[C@@H](c2ccc(OCCOC(=O)[C@H]3C[C@H]4C(=O)N[C@@H](CCCCN(C)C)C(=O)N4[C@H]3c3ccc(O)cc3)cc2)[C@]12C(=O)Nc1ccccc12
A) 0.828

Q) # z-score lookup, item COC(=O)[C@@]1(Cc2ccc(OC)cc2)[C@H]2c3cc(C(=O)N4CCCC4)n(CCF)c3C[C@H]2CN1C(=O)c1ccccc1
A) -1.72

Q) # z-score lookup, item COC(=O)[C@@]1(Cc2ccccc2)[C@H]2c3cc(C(=O)N4CCCC4)n(CCO)c3C[C@H]2CN1C(=O)c1ccccc1
A) 0.309

Q) # z-score lookup, item COC(=O)C(CC#Cc1ccc2c(c1)[C@]1(C(=O)N2)[C@H](C(=O)N2CCc3cc(OC)c(OC)cc3C2)[C@H]2C(=O)O[C@H](c3ccccc3)[C@H](c3ccccc3)N2[C@@H]1c1ccc(O)cc1)C(=O)OC
A) -0.14

Q) # z-score lookup, item O=C1C2C=CC(C(O)c3ccc(Br)cc3)N(Nc3ccccc3)C2C(=O)N1c1ccccc1 (stereo not drawn)
A) -1.48

Q) # z-score lookup, item C=CCN1C(=O)[C@@]2(O[C@@H](CCn3cc([C@H](O)c4ccccc4)nn3)[C@H]([Si](C)(C)c3ccc(OC)cc3)[C@H]2C)c2cc(NC(=O)c3ccc(OC)cc3)ccc21
A) -2.35

Q) # z-score lookup, item O=C1N(CCS(=O)(=O)c2ccccc2)c2ccccc2[C@H]2OC(c3ccc(OCCCO)cc3)=N[C@@]12CCS(=O)(=O)c1ccccc1
A) 0.488

----------
TARGET OF ASSAY: Neurogenic locus notch homolog protein 2 (Homo sapiens)
EXPERIMENT: small molecules binding Notch2 protein – biochemical, small-molecule microarray, 635 nm fluorescence, stem cell growth factors, primary screen (AID 1073)
PROTOCOL CONDITIONS: higher = more signal
Provide the recorded composite z-score for the entries that follow.
Quick one: just the number, no unit, thanks!

Q) # composite z-score lookup, item O=C1C2C=CC(C(O)c3cccc4ccccc34)N(Nc3ccccc3)C2C(=O)N1c1ccccc1 (stereo not drawn)
A) 1.61

Q) # composite z-score lookup, item Cc1ccc(S[C@]2(C(=O)NCC(C)C)CC(=O)N(C3CCCCC3)[C@@H]2c2ccc(CO)cc2I)cc1
A) 0.939

Q) # composite z-score lookup, item O=C1O[C@H](c2ccccc2)[C@H](c2ccccc2)N2[C@H]1[C@@H](C(=O)N1CCCCCCC1)[C@]1(C(=O)Nc3ccc(C#CCCO)cc31)[C@H]2c1ccc(OCCO)cc1
A) 1.76

Q) # composite z-score lookup, item COc1cc(C(O)C2C=CC3C(=O)N(C)C(=O)C3N2NC(=O)OC(C)(C)C)cc(OC)c1OC (stereo not drawn)
A) 1.38

Q) # composite z-score lookup, item CC(C)N1CC=CC23O[C@@H]4C=CCOC(=O)[C@@H]4[C@H]2C(=O)N(CCCCCCO)[C@@H]3C1=O (stereo partly drawn)
A) -0.697

Q) # composite z-score lookup, item NC(=O)[C@H]1[C@@H]2C(=O)O[C@@H](c3ccccc3)[C@@H](c3ccccc3)N2[C@@H](c2ccc(O)cc2)[C@]12C(=O)Nc1ccc(C#CC3(O)CCCCCC3)cc12
A) 1.35

Q) # composite z-score lookup, item COc1ccccc1CN1C(=O)c2ccccc2[C@@H](C(=O)NCC(C)C)[C@@H]1c1ccc(CO)cc1
A) 1.07

Q) # composite z-score lookup, item C/C=C/[C@@H](CCn1cc([C@H](O)c2ccccc2)nn1)[Si](C)(C)c1ccc(OC)cc1
A) -1.5

Q) # composite z-score lookup, item N#Cc1ccc(NN2C(C(O)c3ccco3)C=CC3C(=O)N(c4ccccc4)C(=O)C32)cc1 (stereo not drawn)
A) 0.54

Q) # composite z-score lookup, item COC(=O)[C@]1(Cc2ccccc2CN=[N+]=[N-])N=C(c2ccc(OCCCO)cc2)O[C@@H]1c1ccccc1CN=[N+]=[N-]
A) -0.443

Q) # composite z-score lookup, item CC(C)NC(=O)[C@@]1(Cc2ccccc2I)c2ccccc2C(=O)N(Cc2ccccc2C(F)(F)F)[C@H]1c1ccc(CO)cc1
A) 0.234

Q) # composite z-score lookup, item CCOC(=O)C[C@H]1[C@H](OC(=O)c2cc3ccccc3oc2=O)[C@@H](NC(=O)c2ccc3ccccc3n2)c2cc(OCCCO)ccc2N1C(=O)c1ccc2ccccc2n1
A) 0.114

Q) # composite z-score lookup, item NC(=O)NCC#Cc1ccc2c(c1)[C@]1(C(=O)N2)[C@H](c2ccc(OCCO)cc2)N2[C@H](c3ccccc3)[C@H](c3ccccc3)OC(=O)[C@H]2[C@@H]1C(=O)N1CCN(c2ncccn2)CC1
A) 0.0776

Q) # composite z-score lookup, item Cc1ccc(-c2cccc(=O)o2)cc1
A) -0.351

Q) # composite z-score lookup, item COC(=O)[C@@]1(Cc2ccc(OC)cc2)[C@H]2c3cc(C(=O)N4CCCC4)n(CCc4ccc(O)c(OC)c4)c3C[C@H]2CN1C(=O)c1ccccc1
A) 1.56

Q) # composite z-score lookup, item C=CC[C@@]1(C(=O)NCC(O)CO)N=C(c2ccc(OCCCO)cc2)O[C@@H]1c1ccccc1 (stereo partly drawn)
A) -0.565

Q) # composite z-score lookup, item COC(=O)[C@@]1(Cc2ccc(F)cc2)[C@H]2c3cc(C(=O)N4CCCC4)n(Cc4ccccc4)c3C[C@H]2CN1C(=O)c1ccccc1
A) 1.56

Q) # composite z-score lookup, item COC(=O)c1c(CC[C@@H](CO)NC(=O)N[C@@H](C)Cn2cc(C3(O)CCCC3)nn2)oc(C(C)=O)c1C(=O)OC
A) 0.263

Q) # composite z-score lookup, item O=C(CS)NCCCCCNC(=O)[C@@H]1C[C@@H]2C(=O)N3CCC[C@H]3C(=O)N2[C@@H]1c1ccc(O)cc1
A) -0.677

Q) # composite z-score lookup, item C[N+](C)(C)CCCCNC(=O)[C@H]1C[C@H]2C(=O)NCC(=O)N2[C@H]1c1ccc(O)cc1
A) 0.943

Q) # composite z-score lookup, item COCCOC(=O)N1C(=O)[C@@]2(c3ccccc31)[C@H](c1ccccc1OCCO)N1[C@H](c3ccccc3)[C@H](c3ccccc3)OC(=O)[C@H]1[C@@H]2C(=O)N1CCc2cc(OC)c(OC)cc2C1
A) 0.403

Q) # composite z-score lookup, item COc1ccc(CCNC(=O)[C@@H]2c3ccccc3C(=O)N(Cc3ccccc3)[C@H]2c2ccc(CO)cc2)cc1
A) -0.117

Q) # composite z-score lookup, item COCCOC(=O)N1C(=O)[C@@]2(c3cc(C#CC4(O)CCCCCC4)ccc31)[C@H](C(=O)N1CCc3cc(OC)c(OC)cc3C1)[C@H]1C(=O)O[C@H](c3ccccc3)[C@H](c3ccccc3)N1[C@@H]2c1ccccc1OCCO
A) 1.15

Q) # composite z-score lookup, item CN(C)CCCNC(=O)[C@@]1(Cc2ccccc2I)c2ccccc2C(=O)N(Cc2ccccc2Cl)[C@H]1c1ccc(CO)cc1
A) 0.0497

Q) # composite z-score lookup, item CCCC=C(CCC)[C@@H](NS(=O)(=O)c1cccc2cccnc12)c1ccc(C(=O)OC)cc1
A) 1.59

Q) # composite z-score lookup, item C=CCC(OC(C)=O)[C@@H]1[C@@H](N(Cc2cccc3ccccc23)C(=O)c2ccc(C)cc2)c2cc(OCCCO)ccc2N1C(=O)c1ccc2ccccc2c1 (stereo partly drawn)
A) 0.145

Q) # composite z-score lookup, item COc1ccc([Si](C)(C)[C@@H]2[C@@H](CCO)O[C@]3(C(=O)N(Cc4ccc(N5C(=O)c6ccccc6Oc6ccccc65)cc4)c4ccccc43)[C@H]2C)cc1
A) -0.323

Q) # composite z-score lookup, item C[C@H]1NC(=O)C([C@@H](C)OCc2ccccc2)NC(=O)[C@@]23C(=O)N[C@@H](Cc4ccccc4)C2[C@H](C)[C@@]2(C)O[C@H]2C3/C=C/CC/C=C/CNC1=O (stereo partly drawn)
A) 0.258
